Kindly supply the reported abundance fitness values for the records listed here.
B1: Lysine-specific demethylase 5C, residues 319 to 373; numbered along this chain, P41229 (parent)
chain: AQFIESYVCRMCSRGDEDDKLLLCDGCDDNYHIFCLLPPLPEIPKGVWRCPKCVM

Variants of: B1
MEASUREMENT PROTOCOL: abundance fitness (aPCA) (normalised: wild type 0, dead -1); higher = more abundant; growth selection in yeast, the domain comes from the species named
CONDITION SET: Homo sapiens
Could you keep your reply to the number by itself?

Please give measured abundance fitness of the following entry: C12N
-0.713

Please give measured abundance fitness of the following entry: L21F
-0.078

Please give measured abundance fitness of the following entry: M11I
-0.121

Please give measured abundance fitness of the following entry: V8D
-0.315

Please give measured abundance fitness of the following entry: D29M
-0.237

Please give measured abundance fitness of the following entry: M11V
-0.135

Please give measured abundance fitness of the following entry: E5C
0.046

Please give measured abundance fitness of the following entry: Q2T
0.203

Please give measured abundance fitness of the following entry: M11S
-0.138

Please give measured abundance fitness of the following entry: G26I
-0.21

Please give measured abundance fitness of the following entry: Q2M
-0.109

Please give measured abundance fitness of the following entry: D25K
-0.199

Please give measured abundance fitness of the following entry: D18A
0.112

Please give measured abundance fitness of the following entry: D25M
-0.419

Please give measured abundance fitness of the following entry: V8R
-0.075

Please give measured abundance fitness of the following entry: S13V
-0.121

Please give measured abundance fitness of the following entry: G26A
0.161

Please give measured abundance fitness of the following entry: D19N
0.04

Please give measured abundance fitness of the following entry: G15K
0.086

Please give measured abundance fitness of the following entry: I4L
-0.338

Please give measured abundance fitness of the following entry: L22M
0.05

Please give measured abundance fitness of the following entry: I4A
-0.188

Please give measured abundance fitness of the following entry: D18E
0.042

Please give measured abundance fitness of the following entry: Y31Q
-0.727

Please give measured abundance fitness of the following entry: R10Y
-0.175

Please give measured abundance fitness of the following entry: F34L
-0.157

Please give measured abundance fitness of the following entry: E5V
-0.481

Please give measured abundance fitness of the following entry: I4C
-0.106

Please give measured abundance fitness of the following entry: D19S
-0.089

Please give measured abundance fitness of the following entry: L21C
-0.304

Please give measured abundance fitness of the following entry: E17S
-0.052

Please give measured abundance fitness of the following entry: V8L
-0.243

Please give measured abundance fitness of the following entry: F3K
0.016

Please give measured abundance fitness of the following entry: L23T
0.094

Please give measured abundance fitness of the following entry: S6H
-0.294

Please give measured abundance fitness of the following entry: Q2C
-0.446

Please give measured abundance fitness of the following entry: D25Q
-0.218

Please give measured abundance fitness of the following entry: D16T
-0.182

Please give measured abundance fitness of the following entry: H32C
-0.677

Please give measured abundance fitness of the following entry: G26M
-0.178

Please give measured abundance fitness of the following entry: M11T
-0.211

Please give measured abundance fitness of the following entry: S13C
-0.171

Please give measured abundance fitness of the following entry: L23Q
-0.073

Please give measured abundance fitness of the following entry: C27V
-0.752

Data provenance: the Human Domainome abundance scans (Beltran et al. 2025)
